- target_system: Acetylcholinesterase (Homo sapiens)
- protocol_summary: Acetylcholinesterase (AChE) small molecule antagonists: enzyme-based qHTS assay with human liver microsomes (AID 1347399); note: nearly all actives have a fitted effect of over 60% in size
- conditions: qHTS inhibition; series mostly up to 115 µM
Activity calls are given as the source filed them. Calls come from the whole dose curve.
Classes used: 1 = active, -1 = inactive

• O=C1OC(c2ccc(O)cc2)(c2ccc(O)cc2)c2ccccc21 = -1
• O=C(O)c1ccc(C(=O)O)cc1 = -1
• Nc1cc(=O)[nH]c(N)n1 = -1
• O=C1Cc2cc(Cl)ccc2N1 = -1
• Fc1ccc(Br)cc1 = -1
• O=C(c1ccccc1)C(O)c1ccccc1 (configuration not stated) = -1
• CCCCCCC(O)CCOC(C)=O (configuration not stated) = -1
• Cc1ccccc1C(=O)N1CC/C(=N\OS(=O)(=O)O)c2ccc(Cl)cc21 = -1
• CC(C)=CCC1C(=O)N(c2ccccc2)N(c2ccccc2)C1=O = -1
• CCCCCCS = -1
• C=C(C#N)C(=O)OCC = -1
• CC(=O)OCC=C(C)C = -1
• ClC1=C(Cl)C1(Cl)Cl = -1
• C=CC/C=C/C = -1
• CC/C=C/CCO = -1
• Cc1ccc(N(SC(F)(Cl)Cl)S(=O)(=O)N(C)C)cc1 = 1
• CC(=O)OC(C(=O)c1ccccc1)c1ccccc1 (configuration not stated) = -1
• CCCc1ccccc1 = -1
• CC(C)c1ccccc1O = -1
• CCc1c(C(=O)O)c(=O)cnn1-c1ccc(Cl)cc1 = -1
• CCn1c2ccccc2c2ccccc21 = -1
• c1ccc(SSc2ccccc2)cc1 = -1
• CC1=CC(C)(C)Nc2ccccc21 = -1
• CCOB(OCC)OCC = -1
• OCc1ccccc1 = -1
• CCc1ccc(O)cc1 = -1
• Cn1c(=O)c2c(ncn2CCO)n(C)c1=O = -1
• COC(=O)c1cc(Cl)ccc1NS(=O)(=O)C(F)(F)F = -1
• COc1cc(/C=C/C(=O)CC(=O)/C=C/c2ccc(O)c(OC)c2)ccc1O = -1
• C=C(C)CNCC = -1
• CCCCCCCC(=O)OCC = -1
• CC1(C)S[C@@H]2[C@H](NC(=O)COc3ccccc3)C(=O)N2[C@H]1C(=O)O = -1
• C=C(C)C(=O)OCCOP(=O)(O)OCCOC(=O)C(=C)C = -1
• O=C1C(CCS(=O)c2ccccc2)C(=O)N(c2ccccc2)N1c1ccccc1 (configuration not stated) = -1
• O=NN(CCCl)C(=O)NC1CCCCC1 = -1
• CSc1ccc(O)cc1C = -1
• O=C(O)c1[nH]n(-c2ccc(S(=O)(=O)O)cc2)c(=O)c1N=Nc1ccc(S(=O)(=O)O)cc1 = -1

* * *

As shown below, each of these compounds has a reported activity change, negative = inhibition value.
- target_system: Acetylcholinesterase (Homo sapiens) (UniProt P22303)
- Sequence (P22303 whole entry, looked up): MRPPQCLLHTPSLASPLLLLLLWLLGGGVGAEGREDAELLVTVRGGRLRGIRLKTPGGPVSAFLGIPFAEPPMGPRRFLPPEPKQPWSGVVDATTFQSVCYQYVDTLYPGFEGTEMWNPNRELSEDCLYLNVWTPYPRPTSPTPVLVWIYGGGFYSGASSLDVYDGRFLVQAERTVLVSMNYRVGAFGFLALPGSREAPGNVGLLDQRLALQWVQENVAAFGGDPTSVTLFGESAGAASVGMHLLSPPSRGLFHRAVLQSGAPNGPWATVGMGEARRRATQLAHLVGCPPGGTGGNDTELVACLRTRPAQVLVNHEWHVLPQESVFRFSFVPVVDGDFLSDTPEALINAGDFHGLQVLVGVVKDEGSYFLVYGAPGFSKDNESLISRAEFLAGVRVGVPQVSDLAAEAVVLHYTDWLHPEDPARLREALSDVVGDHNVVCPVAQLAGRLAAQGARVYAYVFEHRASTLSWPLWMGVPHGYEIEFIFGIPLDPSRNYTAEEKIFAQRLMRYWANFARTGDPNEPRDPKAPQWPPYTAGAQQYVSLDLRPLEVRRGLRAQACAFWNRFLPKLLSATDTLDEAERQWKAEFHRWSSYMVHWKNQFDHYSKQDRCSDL
- protocol_summary: Acetylcholinesterase (AChE) small molecule antagonists: enzyme-based qHTS assay with human liver microsomes (AID 1347399); note: nearly all actives have a fitted effect of over 60% in size; for activity change, negative = inhibition: % is set by controls: 0 for no effect and ±100 for the full control effect
- conditions: series mostly up to 115 µM
Activity calls are given as the source filed them. The call rests on the fitted dose curve.
measured_endpoint: activity change, negative = inhibition

* CC1(C)CC(OC(=O)CCCCCCCCC(=O)OC2CC(C)(C)NC(C)(C)C2)CC(C)(C)N1 | 0.16% [at 23.6 µM] (inactive)
* CN1C[C@@H]2C[C@H]1CN2c1cc2c(cc1F)c(=O)c(C(=O)O)cn2C1CC1 | 0.0665% [at 23.6 µM] (inactive)
* O=C(O)CN(CCOCCOCCN(CC(=O)O)CC(=O)O)CC(=O)O | -0.252% [at 0.435 µM] (inactive)

Where do these numbers come from? They come from PubChem BioAssay (Tox21).
